- Tested target: porcine pancreatic elastase (Sus scrofa)
- Construct: purchased Sigma n.E. 0.127
- Sequence (P00772 27-266): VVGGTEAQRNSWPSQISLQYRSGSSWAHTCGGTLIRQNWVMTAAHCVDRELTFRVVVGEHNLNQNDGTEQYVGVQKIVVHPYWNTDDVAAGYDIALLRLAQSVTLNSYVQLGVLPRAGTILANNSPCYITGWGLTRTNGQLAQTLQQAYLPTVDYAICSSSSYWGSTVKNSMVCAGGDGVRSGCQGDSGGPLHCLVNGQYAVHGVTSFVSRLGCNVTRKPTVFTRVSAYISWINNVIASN
- Test summary: antielastase activity (method of Bieth and coll., cleavage of N-succinyl-L-alanyl-L-alanyl-L-alanyl-para-nitroanilide, UV at 410 nm)
- Assay type: biochemical
Readout: pIC50
Just the number, please; pIC50 means minus log10 of the concentration in mol/L.

Ask | Quick one: pIC50 of COc1ccc([C@@H]2CC(=O)c3c(O)cc(O[C@@H]4O[C@H](CO[C@@H]5O[C@@H](C)[C@H](O)[C@@H](O)[C@H]5O)[C@@H](O)[C@H](O)[C@H]4O)cc3O2)cc1O [Esperidin] ?
Reply | 3.03
